All values here come from patent US5250542A.

target: opioid receptor (Mus musculus, UniProt P42866); construct: Five CF-1 male mice (Charles River, Portage, Mich.); from tissue; host or cells: living CF-1 male mice (in vivo test; endogenous receptor); test: mouse writhing analgesis test: block of morphine-induced analgesia; format: in vivo, CF-1 male mice; set-up: unit not given here; details: dose of antagonist that reduced the inhibition of writhing produced by 1.25 mg/kg morphine sulfate to 50%; subcutaneous, 20 min before acetic acid
Sequence (P42866 whole entry): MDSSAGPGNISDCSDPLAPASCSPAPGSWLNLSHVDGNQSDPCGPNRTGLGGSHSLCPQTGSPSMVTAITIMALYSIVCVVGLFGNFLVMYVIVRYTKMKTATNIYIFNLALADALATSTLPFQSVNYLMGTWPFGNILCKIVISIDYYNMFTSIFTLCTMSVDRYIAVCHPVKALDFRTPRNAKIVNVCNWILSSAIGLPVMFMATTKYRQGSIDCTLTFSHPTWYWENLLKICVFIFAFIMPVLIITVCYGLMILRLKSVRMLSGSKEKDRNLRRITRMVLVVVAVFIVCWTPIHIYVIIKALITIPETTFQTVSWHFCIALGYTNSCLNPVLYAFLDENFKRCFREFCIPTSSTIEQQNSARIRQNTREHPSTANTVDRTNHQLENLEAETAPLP
Where a name gives a salt, the structure may show the parent alone.
A collection of compounds and their measured AD50
Quick one: just the number, no unit, thanks!

INSERT INTO results (compound, measure, reported_result) VALUES
  ('CCNC(=O)CNC(=O)C(Cc1ccccc1)CN1CC[C@@](C)(c2cccc(O)c2)[C@@H](C)C1 (stereo partly shown)', 'AD50', 2.6),
  ('CCNC(=O)CCNC(=O)C(Cc1ccccc1)CN1CC[C@@](C)(c2cccc(O)c2)[C@@H](C)C1 (stereo partly shown) [Example 60, monohydrochloride]', 'AD50', 11.2);

For the next question, use this compound.
Output measured AD50 for this item: CC(C)OC(=O)CNC(=O)C(Cc1ccccc1)CN1CC[C@@](C)(c2cccc(O)c2)[C@@H](C)C1 (stereo partly shown) [Example 51, monohydrochloride]
3.8

----------
molecular target: mu receptor (Rattus norvegicus, UniProt P33535); construct: rat whole brain minus cerebellum for mu was homogenized; from tissue; host or cells: brain of male Sprague Dawley rats, whole brain minus cerebellum, homogenate fraction; assay: opioid receptor binding assay, [3H] NAL (tritiated naloxone), mu receptor; design: species or system rat (Male Sprague Dawley), brain minus cerebellum
Sequence (P33535 whole entry): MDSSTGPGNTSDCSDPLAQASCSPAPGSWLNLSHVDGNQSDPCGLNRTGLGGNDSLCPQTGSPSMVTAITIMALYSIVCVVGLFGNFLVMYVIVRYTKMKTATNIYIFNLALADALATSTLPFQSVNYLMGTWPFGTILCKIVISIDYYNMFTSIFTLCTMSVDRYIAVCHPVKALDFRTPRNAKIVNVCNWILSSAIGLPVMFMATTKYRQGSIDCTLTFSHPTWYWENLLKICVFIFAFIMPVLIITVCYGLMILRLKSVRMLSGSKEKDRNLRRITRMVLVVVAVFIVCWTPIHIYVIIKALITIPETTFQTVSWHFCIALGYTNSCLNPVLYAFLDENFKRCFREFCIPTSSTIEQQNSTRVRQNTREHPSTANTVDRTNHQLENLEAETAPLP
Where a name gives a salt, the structure may show the parent alone.
measure: pKi
In textbook form, pKi equals minus log to base ten of the concentration in mol/L.

INSERT INTO measurements (compound, reported_result) VALUES
  ('CC(C)OC(=O)CNC(=O)C(Cc1ccccc1)CN1CC[C@@](C)(c2cccc(O)c2)[C@@H](C)C1 (stereo partly drawn) [Example 51, monohydrochloride]', 8.27),
  ('C[C@H]1CN(CCC(C(=O)NCCC(=O)OCc2ccccc2)C2CCCCC2)CC[C@@]1(C)c1cccc(O)c1 (relative stereo) [Example 25, hydrochloride monohydrate]', 9.66),
  ('CNC(=O)CCCNC(=O)C(Cc1ccccc1)CN1CC[C@@](C)(c2cccc(O)c2)[C@@H](C)C1 (stereo partly drawn) [Example 62, monohydrochloride monohydrate]', 8.93),
  ('CC(C)NC(=O)CNC(=O)C(Cc1ccccc1)CN1CC[C@@](C)(c2cccc(O)c2)[C@@H](C)C1 (stereo partly drawn) [Example 48, hydrochloride monohydrate]', 8.74),
  ('CCNC(=O)CCNC(=O)C(Cc1ccccc1)CN1CC[C@@](C)(c2cccc(O)c2)[C@@H](C)C1 (stereo partly drawn) [Example 60, monohydrochloride]', 8.72);

For the next question, use this compound.
Output measured pKi for this item: C[C@H]1CN(CC(Cc2ccccc2)C(=O)NCC(N)=O)CC[C@@]1(C)c1cccc(O)c1 (stereo partly drawn) [Example 46, monohydrochloride monohydrate]
9.51

----------
target: mu receptor (Rattus norvegicus, UniProt P33535); construct: rat whole brain minus cerebellum for mu was homogenized; from tissue; host or cells: brain of male Sprague Dawley rats, whole brain minus cerebellum, homogenate fraction; experiment: opioid receptor binding assay, [3H] NAL (tritiated naloxone), mu receptor; design: species or system rat (Male Sprague Dawley), brain minus cerebellum; conditions: 20 min, 100 nM test compound; [3H] naloxone 0.5 nM; read-out: % displacement at 100 nM
Where a name gives a salt, the structure may show the parent alone.
A collection of compounds and their measured inhibition at 0.1 µM
Report the figure in % without appending any unit label.

The cases that follow already have their inhibition at 0.1 µM on record.
INSERT INTO results (compound, reported_result) VALUES
  ('C[C@H]1CN(CC(Cc2ccccc2)C(=O)NCC(=O)OCC(=O)NCc2ccccc2)CC[C@@]1(C)c1cccc(O)c1 (relative stereo)', 95),
  ('C[C@H]1CN(CC(Cc2ccccc2)C(=O)NCC(=O)OCC2CCCCC2)CC[C@@]1(C)c1cccc(O)c1 (stereo partly shown) [Example 53, monohydrochloride]', 11),
  ('CC(=O)OC(C)OC(=O)CNC(=O)C(Cc1ccccc1)CN1CC[C@@](C)(c2cccc(O)c2)[C@@H](C)C1 (relative stereo)', 95);

For the next question, use this compound.
Output measured inhibition at 0.1 µM for this item: CCNC(=O)COC(=O)CNC(=O)C(Cc1ccccc1)CN1CC[C@@](C)(c2cccc(O)c2)[C@@H](C)C1 (relative stereo)
99
